test: Solubility at pH 7.4; type: physicochemical; conditions: buffer
solubility vs 400 µM: at or above is T, below is F.

Solved cases (2 shown):
• NCCCC[C@H](NC(=O)OCc1ccccc1)C(=O)c1noc(Cc2ccc(C(=O)NCCc3ccc(C(F)(F)F)cc3)cc2)n1 = F
• NCCCC[C@H](NC(=O)OCc1ccccc1)C(=O)c1noc(Cc2ccc(C(=O)NCc3ccccc3)cc2)n1 = T

Q. Please indicate if the recorded solubility for `COc1ccc(Cc2nc(C(=O)[C@H](CCCCN)NC(=O)OCc3ccccc3)no2)cc1` meets or exceeds 400 µM.
A. F

Q. Identify whether the reported solubility of the following molecule is 400 µM or greater: `NCCCC[C@H](NC(=O)OCc1ccccc1)C(=O)c1noc(CN2CCN(C(=O)CCCc3ccccc3)CC2)n1`
A. T

Q. Could you verify whether the entry `CC(C)CCNC(=O)c1ccc(Cc2nc(C(=O)[C@H](CCCCN)NC(=O)OCc3ccccc3)no2)cc1` shows solubility of no less than 400 µM?
A. F

Q. Could you please find out whether `Cc1ccc(CNC(=O)c2ccc(Cc3nc(C(=O)[C@H](CCCCN)NC(=O)OCc4ccccc4)no3)cc2)cc1C` has solubility that meets 400 µM or exceeds it?
A. F

Q. Confirm if solubility reported for the molecule `NCCCC[C@H](NC(=O)OCc1ccccc1)C(=O)c1noc(Cc2ccc(C(=O)N3CCN(Cc4ccccc4F)CC3)cc2)n1` is 400 µM or above.
A. T

Every entry's value here was drawn from ChEMBL document CHEMBL1146045.
